Test system: ACHN
Experimental details: NCI tumour cell line growth inhibition, 48 h
The source made the active and inactive calls. Cut-off read from the data, not from the text of the source: active = GI50 up to about 1.1 µM and inactive = higher.
Below: a set of entries, each annotated with reported GI50.

{"Molecule": "CCOC(=O)N1Cc2ccoc2C1", "GI50": "> 100 µM (inactive)"}
{"Molecule": "CCN1CCN(c2nc3ccccc3nc2C(=O)c2ccc(OC)c(OC)c2)CC1", "GI50": "9.91 µM (inactive)"}
{"Molecule": "CC1CCCN1CCCOC(=O)c1ccc(OC2C=CCCC2)cc1 (stereo unspecified)", "GI50": "33.5 µM (inactive)"}
{"Molecule": "O=C1/C(=C/c2ccc(Cl)cc2)N=C(c2ccccc2)N1/N=C/c1ccccc1O", "GI50": "5.05 µM (inactive)"}
{"Molecule": "COc1ccc(CCn2cnc3ccccc32)cc1", "GI50": "> 100 µM (inactive)"}
{"Molecule": "COc1ccccc1/C=C1/Sc2scc(CC(=O)Nc3ccccc3)[n+]2C1=O", "GI50": "28.9 µM (inactive)"}

Data provenance is ChEMBL document CHEMBL1201862.
